All figures here come from patent US11512053B2.

biological target: full-length human PRMT1 isoform 1 (GST-tagged) (Homo sapiens, UniProt Q99873); assay: PRMT1 Biochemical Assay (3H-SAM Flashplate, peptide substrate); conditions: single experiment or average of multiple experiments
Sequence (Q99873 with tags, fused parts or gaps): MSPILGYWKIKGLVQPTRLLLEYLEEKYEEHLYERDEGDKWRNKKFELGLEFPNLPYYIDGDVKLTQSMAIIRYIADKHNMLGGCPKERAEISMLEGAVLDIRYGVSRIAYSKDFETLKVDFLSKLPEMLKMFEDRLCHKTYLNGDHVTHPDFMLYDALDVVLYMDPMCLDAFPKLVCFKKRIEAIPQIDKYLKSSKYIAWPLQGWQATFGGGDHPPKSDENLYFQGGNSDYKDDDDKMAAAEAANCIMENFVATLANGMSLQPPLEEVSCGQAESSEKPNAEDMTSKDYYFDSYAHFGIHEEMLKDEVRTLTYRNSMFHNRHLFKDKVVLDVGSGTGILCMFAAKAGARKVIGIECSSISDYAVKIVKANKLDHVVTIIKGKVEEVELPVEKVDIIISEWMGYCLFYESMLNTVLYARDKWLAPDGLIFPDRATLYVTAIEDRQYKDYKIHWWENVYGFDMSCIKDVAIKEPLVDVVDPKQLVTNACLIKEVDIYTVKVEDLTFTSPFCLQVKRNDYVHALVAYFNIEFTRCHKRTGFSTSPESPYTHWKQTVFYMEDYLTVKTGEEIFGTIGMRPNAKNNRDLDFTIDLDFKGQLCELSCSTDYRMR
Could you mark each record label 1 if its IC50 falls strictly under 40 nM, and label 0 if it equals or exceeds it?

[[record]]
compound = "CNCCN(C)Cc1c[nH]nc1/C=C/c1ccc(-c2ccccc2)cc1 [Compound 5]"
assayed_system = "full-length human PRMT1 isoform 1 (GST-tagged) (Homo sapiens, UniProt Q99873)"
class = "label 1"

[[record]]
compound = "CCC(=O)N(CCOc1ccccc1)[C@H]1CC[C@H](c2n[nH]cc2CN(C)CCNC)CC1 [Compound 221]"
assayed_system = "full-length human PRMT1 isoform 1 (GST-tagged) (Homo sapiens, UniProt Q99873)"
class = "label 1"

[[record]]
compound = "COC/C=C/c1n[nH]cc1CN(C)CCN [Compound 19]"
assayed_system = "full-length human PRMT1 isoform 1 (GST-tagged) (Homo sapiens, UniProt Q99873)"
class = "label 0"


Request: Item CCN(C(=O)CCOc1ccccc1)[C@H]1CC[C@H](c2n[nH]cc2CN(C)CCNC)CC1 [Compound 225] : IC50 beneath 40 nM, strictly?
Response: label 1

Request: Problem: For the compound CNCCN(C)Cc1c[nH]nc1C#Cc1ccc(F)cc1 [Compound 4] , is IC50 under 40 nM?
Response: label 1

Request: Strictly below 40 nM: is that where IC50 of CNCCN(C)Cc1c[nH]nc1C1CCCC(COCCC(O)CO)C1 (stereo not drawn) [Compound 113] sits?
Response: label 0

Request: Please check: IC50 for CCOC1CC(OCC)CC(c2n[nH]cc2CN(C)CCNC)C1 (stereo not drawn) [Compound 132] , strictly under 40 nM or not?
Response: label 0

Request: Field: below-cutoff. Rule: recorded IC50 strictly less than 40 nM. Subject: CNCCN(C)Cc1c[nH]nc1[C@H]1CC[C@@H](C(=O)N(C)CCC(C)C)CC1 [Compound 210]
Response: label 1

Request: Determine whether this compound shows IC50 lower than 40 nM (ties excluded): CNCCN(C)Cc1c[nH]nc1[C@H]1CC[C@@H](N(CCC(C)C)C(=O)CCCOC)CC1 [Compound 237]
Response: label 0

----------
molecular target: full-length human PRMT8 isoform 1 (Homo sapiens, UniProt Q9NR22); test: PRMT8 Biochemical Assay (3H-SAM Flashplate, peptide substrate); settings: read-out: Biochemical IC50 PRMT8
Sequence (Q9NR22 whole entry, canonical isoform): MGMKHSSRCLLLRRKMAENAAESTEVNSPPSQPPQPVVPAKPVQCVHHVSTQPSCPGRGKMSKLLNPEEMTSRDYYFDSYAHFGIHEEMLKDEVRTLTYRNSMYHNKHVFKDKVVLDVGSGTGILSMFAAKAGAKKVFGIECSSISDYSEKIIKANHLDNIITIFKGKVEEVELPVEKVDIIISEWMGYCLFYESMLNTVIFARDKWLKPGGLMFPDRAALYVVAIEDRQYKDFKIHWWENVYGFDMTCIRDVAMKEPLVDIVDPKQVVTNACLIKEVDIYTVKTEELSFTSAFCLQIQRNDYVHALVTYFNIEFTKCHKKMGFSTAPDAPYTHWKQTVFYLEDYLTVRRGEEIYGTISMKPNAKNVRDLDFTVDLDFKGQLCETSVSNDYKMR
Where a name gives a salt, the structure may show the parent alone.
Measure name: IC50

Some molecules with known IC50 results, for comparison:
[[record]]
molecule = "CNCCN(C)Cc1c[nH]nc1[C@H]1CC[C@@]2(CCOC2(C)C)CC1 [Compound 106]"
value = "< 100 nM"

[[record]]
molecule = "CN(CCN)Cc1c[nH]nc1C(C)(C)C [Compound 27]"
value = "> 10000 nM"

[[record]]
molecule = "CNCCN(C)Cc1c[nH]nc1[C@H]1CC[C@H](O)C2(CCCCC2)C1 (racemic) [Compound 184]"
value = "< 100 nM"

[[record]]
molecule = "CNCCN(C)Cc1c[nH]nc1C1CCC2(CCOCC2)CC1 [Compound 178]"
value = "< 100 nM"

[[record]]
molecule = "CNCCN(C)Cc1c[nH]nc1C1CCC(F)(F)CC1 [Compound 216]"
value = "< 100 nM"


Request: Value wanted: IC50 (full-length human PRMT8 isoform 1 (Homo sapiens, UniProt Q9NR22)) of entry CNCCN(C)Cc1cnn(C)c1[C@H]1CC[C@@]2(CC1)CC(C)(C)CO2 [Compound 245, trifluoroacetic acid salt]
Response: < 100 nM

Request: Please tell me: IC50 of CNCCN(C)Cc1c[nH]nc1[C@H]1CC[C@@H](C(=O)N(CCCOC)CCC(C)C)CC1 [Compound 214] , system full-length human PRMT8 isoform 1 (Homo sapiens, UniProt Q9NR22)?
Response: < 100 nM

Request: For the record CNCCN(C)Cc1c[nH]nc1[C@H]1CC[C@H](N(CCC(C)C)C(=O)CCOC)CC1 [Compound 236] , what value of IC50 is listed for full-length human PRMT8 isoform 1 (Homo sapiens, UniProt Q9NR22)?
Response: < 100 nM

Request: Provide value of IC50 for this record tested with full-length human PRMT8 isoform 1 (Homo sapiens, UniProt Q9NR22): CNCCN(C)Cc1c[nH]nc1C1CCC2(CC1)OCCO2 [Compound 177]
Response: 101 to 1000 nM
